Target: Dual specificity tyrosine-phosphorylation-regulated kinase 1A (Homo sapiens)
Assay: Inhibition of DYRK1A (unknown origin) using woodtide as substrate after 10 mins in presence of [gamma-33P]ATP by microbeta scintillation counting
For each entry below, report its IC50 value.
Numbers only, in nM.

Take a look at these entries with their results.
[[record]]
smiles_structure = "CC(=O)Nc1ccc(-c2cnc3[nH]cc(-c4ccc(O)cc4)c3c2)cc1"
target = "Dual specificity tyrosine-phosphorylation-regulated kinase 1A (Homo sapiens)"
value = 6.6

[[record]]
smiles_structure = "Oc1ccc(-c2cnc3[nH]cc(-c4ccc(O)cc4)c3c2)cc1"
target = "Dual specificity tyrosine-phosphorylation-regulated kinase 1A (Homo sapiens)"
value = 14

[[record]]
smiles_structure = "Oc1ccc(-c2cnc3[nH]cc(-c4ccc(-c5nnn[nH]5)cc4)c3c2)cc1"
target = "Dual specificity tyrosine-phosphorylation-regulated kinase 1A (Homo sapiens)"
value = 280

[[record]]
smiles_structure = "O=C(Nc1cccc(O)c1)c1cnc2[nH]cc(-c3ccc(O)cc3)c2c1"
target = "Dual specificity tyrosine-phosphorylation-regulated kinase 1A (Homo sapiens)"
value = 127

[[record]]
smiles_structure = "O=[N+]([O-])c1ccc(-c2cnc3[nH]cc(-c4ccc(O)cc4)c3c2)cc1"
target = "Dual specificity tyrosine-phosphorylation-regulated kinase 1A (Homo sapiens)"
value = 212


For each of the compounds below, note its IC50.
1. NC(=O)Nc1ccc(-c2cnc3[nH]cc(-c4ccc(O)cc4)c3c2)cc1
2. O=C(Nc1ccc(O)cc1)c1cnc2[nH]cc(-c3ccc(O)cc3)c2c1
3. Nc1ccc(-c2cnc3[nH]cc(-c4ccc(O)cc4)c3c2)cc1
4. CS(=O)(=O)Nc1ccc(-c2cnc3[nH]cc(-c4ccc(O)cc4)c3c2)cc1
5. Oc1ccc(-c2cnc3[nH]cc(-c4ccc5[nH]ccc5c4)c3c2)cc1
6. Oc1ccc(-c2c[nH]c3ncc(-c4ccc5[nH]ccc5c4)cc23)cc1
7. Oc1ccc(-c2c[nH]c3ncc(-c4ccc(-c5nnn[nH]5)cc4)cc23)cc1

Completion:
1. 31
2. 344
3. 43
4. 56
5. 169
6. 204
7. 86

* * *

For each entry below, report its EC50 value.
Assay: Cytotoxicity against patient-derived WK1 cells assessed as reduction in cell viability after 5 days by Alamar blue assay
Format: functional, cell-based
Conditions: Homo sapiens, WK1, 120 h
One number for each entry, in µM.

Take a look at these entries with their results.
[[record]]
smiles_structure = "CC(=O)Nc1ccc(-c2cnc3[nH]cc(-c4ccc(O)cc4)c3c2)cc1"
value = 0.9

[[record]]
smiles_structure = "O=C(Nc1ccc(O)cc1)c1cnc2[nH]cc(-c3ccc(O)cc3)c2c1"
value = 21

[[record]]
smiles_structure = "O=C(Nc1cccc(O)c1)c1cnc2[nH]cc(-c3ccc(O)cc3)c2c1"
value = 13.2

[[record]]
smiles_structure = "CS(=O)(=O)Nc1ccc(-c2cnc3[nH]cc(-c4ccc(O)cc4)c3c2)cc1"
value = 42

[[record]]
smiles_structure = "Oc1ccc(-c2cnc3[nH]cc(-c4ccc5[nH]ccc5c4)c3c2)cc1"
value = 6.2

[[record]]
smiles_structure = "Nc1ccc(-c2cnc3[nH]cc(-c4ccc(O)cc4)c3c2)cc1"
value = 0.9


Below: the item to evaluate.
The measured EC50 associated with `Oc1ccc(-c2cnc3[nH]cc(-c4ccc(O)cc4)c3c2)cc1` reads 1.1
